Recorded fold induction at 50 µM by entry
Tested on: E. faecium
RUN DESCRIPTION: AK assay 384-well format, Prestwick library screening
Assay type: cell-based, Enterococcus faecium
EXPERIMENTAL CONDITIONS: Enterococcus faecium, 3 h; planktonic E. faecium; 50 μM final drug concentration; 384-well; cutoff for positive-scoring molecules 3-fold increase; read-out: AK-based Prestwick Library Screening Results: E. faecium (increase in extracellular AK activity)

Some solved entries appear below for comparison.
- COMPOUND SMILES: "OCCN(CCO)c1nc(N2CCCCC2)c2nc(N(CCO)CCO)nc(N3CCCCC3)c2n1"
  fold induction at 50 µM: 0.9
- COMPOUND SMILES: "CCCCOc1cc(C(=O)NCCN(CC)CC)c2ccccc2n1"
  fold induction at 50 µM: 0.9

Note: attention shifts to another entry.
**Query** Entry O=C1O[C@H]([C@@H](O)CO)C(O)=C1O : reported fold induction at 50 µM = ?
**Result** 0.9

* * *

System: K. pneumoniae
RUN DESCRIPTION: AK assay 384-well format, Prestwick library screening
Type: cell-based, Klebsiella pneumoniae
EXPERIMENTAL CONDITIONS: Klebsiella pneumoniae, 3 h; 50 μM final drug concentration; cutoff for positive-scoring molecules 3-fold increase; read-out: AK-based Prestwick Library Screening Results, K. pneumoniae (fold increase in extracellular AK activity)
Where a name gives a salt, the structure may show the parent alone.
PROPERTY NAME: fold induction at 50 µM

Some solved entries appear below for comparison.
- MOLECULE: "NC(CO)C(=O)NNCc1ccc(O)c(O)c1O (stereo not drawn) [Benserazide hydrochloride]"
  TARGET: "K. pneumoniae"
  ASSAY VALUE: 1.2
- MOLECULE: "O=C(CCCCC(=O)Nc1c(I)cc(I)c(C(=O)O)c1I)Nc1c(I)cc(I)c(C(=O)O)c1I [Iodipamide]"
  TARGET: "K. pneumoniae"
  ASSAY VALUE: 1
- MOLECULE: "C[N+](C)(C)CCCCCCCCCC[N+](C)(C)C [Decamethonium bromide]"
  TARGET: "K. pneumoniae"
  ASSAY VALUE: 0.5
- MOLECULE: "COc1cc2nc(N3CCN(C(=O)c4ccco4)CC3)nc(N)c2cc1OC [Prazosin hydrochloride]"
  TARGET: "K. pneumoniae"
  ASSAY VALUE: 0.9

**Query** Entry Cc1oncc1C(=O)Nc1ccc(C(F)(F)F)cc1 [Leflunomide] : reported fold induction at 50 µM = ?
**Result** 0.6

**Query** Entry Cc1cc2cc3c(C)cc(=O)oc3c(C)c2o1 : reported fold induction at 50 µM = ?
**Result** 1

**Query** Entry Clc1ccc(C(OCCN2CCCCC2)c2ccccc2)cc1 (stereo not drawn) [Cloperastine hydrochloride] : reported fold induction at 50 µM = ?
**Result** 1.2

**Query** Entry COc1cc2nc(N3CCN(C(=O)C4COc5ccccc5O4)CC3)nc(N)c2cc1OC (stereo not drawn) [Doxazosin mesylate] : reported fold induction at 50 µM = ?
**Result** 0.9

**Query** Entry CCCC(C(=O)OCCN(CC)CC)(c1ccccc1)c1ccccc1 [Proadifen hydrochloride] : reported fold induction at 50 µM = ?
**Result** 0.8

**Query** Entry CCN(CC)CCNC(=O)c1cc(Br)c(N)cc1OC [Bromopride] : reported fold induction at 50 µM = ?
**Result** 1

**Query** Entry C/C=C(/C(=C/C)c1ccc(O)cc1)c1ccc(O)cc1 : reported fold induction at 50 µM = ?
**Result** 0.9

**Query** Entry CC(C)(C)C(=O)OCOC(=O)[C@@H]1N2C(=O)[C@@H](/N=C/N3CCCCCC3)[C@H]2SC1(C)C [Pivmecillinam hydrochloride] : reported fold induction at 50 µM = ?
**Result** 0.5

**Query** Entry NC[C@@H]1O[C@H](O[C@H]2[C@@H](O)[C@H](O[C@@H]3[C@@H](O)[C@H](N)C[C@H](N)[C@H]3O[C@H]3O[C@H](CO)[C@@H](O)[C@H](O)[C@H]3N)O[C@@H]2CO)[C@H](N)[C@@H](O)[C@@H]1O [Paromomycin sulfate] : reported fold induction at 50 µM = ?
**Result** 1

**Query** Entry COc1cc(C(=O)OC2CC3CCC(C2)N3C)ccc1O (stereo not drawn) : reported fold induction at 50 µM = ?
**Result** 0.8

**Query** Entry CCCOc1ccc(C(=O)OCCN(CC)CC)cc1N [Proparacaine hydrochloride] : reported fold induction at 50 µM = ?
**Result** 1.1
